Property: %Inh; scope: individual compounds
System: PRKCD
Settings: concentration: 1 μM, replicates: in singlicate; n = 1
Entry rule: numbers only, all in %.

The cases that follow already have their %Inh on record.
Q. Fetch value of %Inh on PRKCD for FC(F)(F)c1ccc(-c2nn3ncccc3c2-c2ccnc(Nc3cccc(C(F)(F)F)c3)n2)cc1 [GW828205] .
A. 16

Q. Give %Inh for Nc1nc(-c2ccc3c(N)n[nH]c3c2)cc(N2CCC[C@@H](C(=O)Nc3ccccc3)C2)n1.O=C(O)C(F)(F)F.O=C(O)C(F)(F)F [GSK2288359] tested on PRKCD.
A. 0

Q. Report %Inh on PRKCD for this entry: O=C(c1ccc(-c2cc(-c3c[nH]nc3-c3ccccn3)ccn2)cc1)N1CCCC1 [GW792479]
A. 12

Q. Provide PRKCD %Inh reading for Cl.c1ccc(Cn2ncc3cc(Nc4ncnc5ccccc45)ccc32)cc1 [GW273749] .
A. 0

Please look at the following compound next.
Q. // fetch %Inh for FC(F)(F)c1cc(Nc2nccc(-c3c(-c4ccc(Cl)cc4)nn4ncccc34)n2)ccc1Cl [GW829351] ; system: PRKCD;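 further: KINOMEscan kinase panel screen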
A. 0
